Hi, quick share: literature pKi data for Coagulation factor X (Homo sapiens), several sources combined.
pKi: −log10 of the molar value.

| MOLECULE | RELATION SYMBOL | pKi |
| --- | --- | --- |
| COC(=O)C(Oc1cccc2sc(C(=N)N)cc12)c1ccccc1 (stereo not given) | = | 4.86 |
| CN(C(=O)CN1CCN(S(=O)(=O)c2cc3ccc(Cl)cc3s2)CC1=O)c1ccncc1 | < | 5.92 |
| N=C(N)c1cccc(CNC(=O)c2cc3cc(O)ccc3n2Cc2cccc(C(=N)N)c2)c1 | = | 7.11 |
| CC(C)c1cc(C(C)C)c(S(=O)(=O)N[C@@H](Cc2cccc(C(=N)N)c2)C(=O)N2CCN(C(=O)CCCN)CC2)c(C(C)C)c1 | = | 4.89 |
| CC(C)Oc1ccc(CCNS(=O)(=O)c2cc(C(=N)N)ccc2O)cc1 | = | 7.00 |
